- experimental-target: recombinant eNOS (Bos taurus)
- protocol-description: NOS activity assay, conversion of L-[14C(U)]-arginine to L-[14C(U)]-citrulline, eNOS
- applied-conditions: 50 µM L-arginine, 30 min at 37°C, pH 7.4; means ± SD (n = 4)
Listing of recorded IC50 by entry.

molecule	experimental-target	units-text	result-comparator	IC50
CC1NC(NCCCC(N)C(=O)O)=NC1=O (centres unmarked)	recombinant eNOS (Bos taurus)	µM	=	1280
CN(C)C(=N)NCCCC(N)C(=O)O [ADMA, asymmetric N^G,N^G-dimethyl-L-arginine, reference compound]	recombinant eNOS (Bos taurus)	µM	=	16
N=C(NCCCC(N)C(=O)O)NCC(=O)O (centres unmarked)	recombinant eNOS (Bos taurus)	µM	=	830
NC(CCCCNCC(=O)O)C(=O)O (centres unmarked)	recombinant eNOS (Bos taurus)	µM	>	5000
CC(NC(=N)NCCCC(N)C(=O)O)C(=O)O (centres unmarked)	recombinant eNOS (Bos taurus)	µM	=	3870
